Target: human neurokinin 1 (NK1) receptor (Homo sapiens, UniProt P25103)
Construct: expressed in transfected cells; host or cells: Chinese hamster ovary (CHO) cells, membranes
Sequence (P25103 whole entry): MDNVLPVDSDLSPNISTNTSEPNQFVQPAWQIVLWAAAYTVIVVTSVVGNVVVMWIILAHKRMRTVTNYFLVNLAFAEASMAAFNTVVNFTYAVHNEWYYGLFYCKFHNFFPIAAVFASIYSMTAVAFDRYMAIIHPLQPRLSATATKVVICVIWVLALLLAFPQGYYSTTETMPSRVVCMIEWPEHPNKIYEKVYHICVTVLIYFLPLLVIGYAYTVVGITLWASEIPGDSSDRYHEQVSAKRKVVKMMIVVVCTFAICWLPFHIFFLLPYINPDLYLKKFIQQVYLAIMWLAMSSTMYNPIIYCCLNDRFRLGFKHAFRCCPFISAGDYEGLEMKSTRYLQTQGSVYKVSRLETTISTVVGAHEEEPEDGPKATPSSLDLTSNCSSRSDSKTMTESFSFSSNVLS
Experiment: Neurokinin receptor binding assay, NK1 ([3H]-Substance P)
Description: Chinese Hamster ovary (CHO) cells transfected with the coding regions for the human neurokinin 1 (NK1) of the human neurokinin 2 (NK2) receptors are grown in Dulbecco's minimal essential medium supplemented with 10% fetal calf serum, 0.1 mM non-essential amino acids, 2 mM glutamine, 100 units/ml of penicillin and streptomycin, and 0.8 mg of G418/ml at 37° C. in a humidified atmosphere containing 5% CO2. […]
I'd appreciate it if you could supply Ki values for the items below.
Numeric answer only, unit nM assumed.

QUERY: Would you kindly share the measured Ki for Cc1cc(C(=O)N(C)CC(CCN(C)CCc2c[nH]c3ccccc23)c2ccc(Cl)c(Cl)c2)cc(Cl)n1 (centres unmarked) [Example 12c] ?
RESULT: 103

QUERY: Would you mind doing CN(CCc1c[nH]c2ccccc12)CCC1(c2ccc(Cl)c(Cl)c2)CCN(C(=O)c2cc(C(F)(F)F)cc(C(F)(F)F)c2)C1 (centres unmarked) [Example 14b] as well?
RESULT: 21

---

Molecular target: human neurokinin 1 (NK1) receptor (Homo sapiens, UniProt P25103)
Construct: expressed in transfected cells; host or cells: Chinese hamster ovary (CHO) cells, membranes
Experiment: Neurokinin receptor binding assay, NK1 ([3H]-Substance P)
Settings: CHO membranes, human NK-1 receptor, [3H]-Substance P 0.8 nM; Cheng-Prusoff; read-out: Ki (NK1)
Method: Chinese Hamster ovary (CHO) cells transfected with the coding regions for the human neurokinin 1 (NK1) of the human neurokinin 2 (NK2) receptors are grown in Dulbecco's minimal essential medium supplemented with 10% fetal calf serum, 0.1 mM non-essential amino acids, 2 mM glutamine, 100 units/ml of penicillin and streptomycin, and 0.8 mg of G418/ml at 37° C. in a humidified atmosphere containing 5% CO2. […]
I'd appreciate it if you could supply pKi values for the items below.
Scale note: pKi = -log10(concentration in M).

QUERY: Would you kindly share the measured pKi for COc1cc(C(=O)N(C)CC(CCN[C@@H](Cc2c[nH]c3ccccc23)C(=O)O)c2ccc(Cl)c(Cl)c2)cc(OC)c1OC (some centres unmarked) ?
RESULT: 6.63

QUERY: Would you mind doing COc1cc(C(=O)N(C)CC(CCN(C)CCCc2c[nH]c3ccccc23)c2ccc(Cl)c(Cl)c2)cc(OC)c1OC (centres unmarked) as well?
RESULT: 7.72

This collection of values is drawn from patent US5691362A.
